melting point values by entry
Give the value, in units of °C, as a plain number.

Study these solved cases before continuing.
State, in one line, measured melting point of Cc1cc(-c2cnn3c2C(=O)N(c2ccc(Cl)c(C(F)(F)F)c2)C[C@@H]3C)ccn1
143.6

State, in one line, measured melting point of C[C@H]1CN(c2ccc(C(F)(F)F)cc2)C(=O)c2c(-c3ccnc(N(C)C)c3)cnn21
99.8

More entries:
State, in one line, measured melting point of CC[C@@H]1CN(c2ccc(C(F)(F)F)cc2)C(=O)c2c(-c3ccnc(C)c3)cnn21
135.1

State, in one line, measured melting point of Cc1cc(-c2cnn3c2C(=O)N(c2ccc(OC(F)F)c(Cl)c2)C[C@@H]3C)ccn1
108.5

* * *

melting point values by entry
Give the value, in units of °C, as a plain number.

State, in one line, measured melting point of CCc1cc(-c2cnn3c2C(=O)N(c2ccc(C(F)(F)F)cc2)C[C@@H]3C)ccn1
124.6

State, in one line, measured melting point of CC(=O)N1CC(c2ccc(-c3cnn4c3C(=O)N(c3ccc(C(F)(F)F)cc3)C[C@@H]4C)cn2)C1
93

State, in one line, measured melting point of Cc1cc(-c2cnn3c2C(=O)N(c2ccc(S(F)(F)(F)(F)F)cc2)C[C@@H]3C)ccn1
247

* * *

- ASSAY TARGET: human mGlu2 receptor (Homo sapiens)
- Construct: expressed in transfected cells; host or cells: CHO cells (membrane preparation)
- PROTOCOL: [35S]GTPγS binding assay (mGluR2 negative allosteric modulation)
- Assay type: biochemical
- RUN CONDITIONS: membranes from CHO cells transfected with human mGlu2 receptor; glutamate 60 μM; pIC50 = −log IC50 (M); read-out: GTPγS - hmGluR2 anGT pIC50 (converted)
MEASURED PROPERTY: IC50 (M)
Give the value, in units of M, as a plain number.

GET IC50 where system = human mGlu2 receptor (Homo sapiens) and item = COc1ccc(N2C[C@H](C)n3ncc(-c4ccnc(C)c4)c3C2=O)cc1 [compound 38]
9.55e-07

GET IC50 where system = human mGlu2 receptor (Homo sapiens) and item = Cc1cc(-c2cnn3c2C(=O)N(c2ccc(C(F)(F)F)cc2)C[C@@H]3C)cc(C)n1 [compound 14]
2.4e-08

GET IC50 where system = human mGlu2 receptor (Homo sapiens) and item = Cc1cc(-c2cnn3c2C(=O)N(c2cc(F)c(C(F)(F)F)c(F)c2)C[C@@H]3C)ccn1 [compound 132]
2.4e-08

GET IC50 where system = human mGlu2 receptor (Homo sapiens) and item = Cc1cc(-c2cnn3c2C(=O)N(c2ccc(OC(C)C(F)(F)F)cc2)C[C@@H]3C)ccn1 (stereo partly shown) [compound 165]
1.95e-08

GET IC50 where system = human mGlu2 receptor (Homo sapiens) and item = Cc1cc(-c2cnn3c2C(=O)N(c2ccc(Cl)c(C)c2)C[C@@H]3C)ccn1 [compound 7]
7.59e-09

GET IC50 where system = human mGlu2 receptor (Homo sapiens) and item = C[C@H]1CN(c2ccc(C(F)(F)F)cc2)C(=O)c2c(-c3ccnc(N4CC(O)C4)c3)cnn21 [compound 101]
4.07e-07

More entries:
GET IC50 where system = human mGlu2 receptor (Homo sapiens) and item = COCC1CN(c2ccc(Cl)c(Cl)c2)C(=O)c2c(-c3ccnc(C)c3)cnn21 (single isomer, unassigned) [compound 118]
1.95e-08

GET IC50 where system = human mGlu2 receptor (Homo sapiens) and item = Cc1cc(-c2cnn3c2C(=O)N(c2ccc(Cl)c(OC(F)F)c2)C[C@@H]3C)ccn1 [compound 163]
1.1e-08

* * *

- ASSAY TARGET: human mGlu2 receptor (Homo sapiens, UniProt Q14416)
- Construct: expressed in transfected cells; host or cells: CHO cells (membrane preparation)
- Sequence (Q14416 19-872): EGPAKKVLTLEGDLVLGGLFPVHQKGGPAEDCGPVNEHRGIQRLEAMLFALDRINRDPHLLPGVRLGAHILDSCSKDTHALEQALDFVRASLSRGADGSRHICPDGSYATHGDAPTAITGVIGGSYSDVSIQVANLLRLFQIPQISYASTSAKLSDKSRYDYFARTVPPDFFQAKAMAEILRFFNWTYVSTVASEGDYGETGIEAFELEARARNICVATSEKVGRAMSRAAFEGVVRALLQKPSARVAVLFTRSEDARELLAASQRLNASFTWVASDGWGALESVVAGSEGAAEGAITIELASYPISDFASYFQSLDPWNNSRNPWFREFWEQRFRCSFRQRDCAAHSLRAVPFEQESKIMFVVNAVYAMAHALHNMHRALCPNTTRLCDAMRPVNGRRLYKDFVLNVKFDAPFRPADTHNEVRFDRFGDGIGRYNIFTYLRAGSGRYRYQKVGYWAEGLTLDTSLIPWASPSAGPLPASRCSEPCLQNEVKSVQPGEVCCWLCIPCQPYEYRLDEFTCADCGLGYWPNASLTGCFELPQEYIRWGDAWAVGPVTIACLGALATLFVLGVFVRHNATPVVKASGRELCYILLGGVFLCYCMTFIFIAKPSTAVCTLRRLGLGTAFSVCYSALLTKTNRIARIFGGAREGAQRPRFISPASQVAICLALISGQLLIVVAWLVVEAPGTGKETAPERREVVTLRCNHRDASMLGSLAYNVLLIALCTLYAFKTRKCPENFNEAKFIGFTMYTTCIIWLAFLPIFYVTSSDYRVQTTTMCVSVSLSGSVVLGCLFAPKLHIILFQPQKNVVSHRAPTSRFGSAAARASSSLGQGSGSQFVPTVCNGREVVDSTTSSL
- PROTOCOL: [35S]GTPγS binding assay (mGluR2 negative allosteric modulation)
- Format: biochemical
- RUN CONDITIONS: membranes from CHO cells transfected with human mGlu2 receptor; glutamate 60 μM; pIC50 = −log IC50 (M); read-out: GTPγS - hmGluR2 anGT pIC50 (converted)
IC50 values by entry

Study these solved cases before continuing.
State, in one line, measured IC50 of Cc1cc(-c2cnn3c2C(=O)N(c2ccc(Cl)c(C(F)(F)F)c2)C[C@@H]3C)ccn1
1.05e-08 M

State, in one line, measured IC50 of CCOc1cc(N2CC(CO)n3ncc(-c4ccnc(C)c4)c3C2=O)ccc1C(F)(F)F (stereo not drawn)
2.14e-07 M

State, in one line, measured IC50 of CCOc1cccc(N2C[C@H](C)n3ncc(-c4ccnc(C)c4)c3C2=O)c1
7.94e-07 M

State, in one line, measured IC50 of Cc1cc(-c2cnn3c2C(=O)N(c2ccc(Cl)c(Cl)c2)C[C@@H]3C)cc(C)n1
6.46e-09 M

State, in one line, measured IC50 of COc1nc(N2C[C@H](C)n3ncc(-c4ccnc(C)c4)c3C2=O)ccc1C(F)(F)F
3.8e-09 M

State, in one line, measured IC50 of C[C@H]1CN(c2ccc(C(F)(F)F)cc2)C(=O)c2c(-c3ccnc(C(F)F)c3)cnn21
2.45e-08 M

State, in one line, measured IC50 of C[C@H]1CN(c2ccc(C(F)(F)F)cc2)C(=O)c2c(-c3ccc(N4CCNCC4)nc3)cnn21
6.31e-06 M

State, in one line, measured IC50 of CCOc1cc(N2C[C@H](C)n3ncc(-c4ccnc(C)c4)c3C2=O)ccc1C(F)(F)F
5.89e-09 M

Now turn to the next molecule.
State, in one line, measured IC50 of C[C@H]1CN(c2ccc(C(F)(F)F)cc2)C(=O)c2c(-c3ccnc(C(F)(F)F)c3)cnn21
1.45e-08 M

* * *

- ASSAY TARGET: human mGlu2 receptor (Homo sapiens)
- Construct: expressed in transfected cells; host or cells: CHO cells (membrane preparation)
- PROTOCOL: [35S]GTPγS binding assay (mGluR2 negative allosteric modulation)
- Type: biochemical
- RUN CONDITIONS: relative maximal effect: maximal % inhibition relative to the control glutamate response; read-out: GTPγS - hmGluR2 anGT Emax
Emax values by entry
Give the value, in units of %, as a plain number.

Study these solved cases before continuing.
GET Emax where system = human mGlu2 receptor (Homo sapiens) and item = CNc1cc(-c2cnn3c2C(=O)N(c2ccc(Cl)cc2)C[C@@H]3C)ccn1 [compound 178]
107

GET Emax where system = human mGlu2 receptor (Homo sapiens) and item = Cc1cc(-c2cnn3c2C(=O)N(c2ccc(C4(C(F)(F)F)CC4)cc2)C[C@@H]3C)ccn1 [compound 136]
102

GET Emax where system = human mGlu2 receptor (Homo sapiens) and item = C[C@H]1CN(c2ccc(C(F)(F)F)cc2)C(=O)c2c(-c3ccnc(N4CCCC4)c3)cnn21 [compound 105]
108

More entries:
GET Emax where system = human mGlu2 receptor (Homo sapiens) and item = CC(C)Nc1cc(-c2cnn3c2C(=O)N(c2ccc(Cl)c(Cl)c2)C[C@@H]3C)ccn1 [compound 261]
107

GET Emax where system = human mGlu2 receptor (Homo sapiens) and item = CCOc1cccc(N2C[C@H](C)n3ncc(-c4ccnc(C)c4)c3C2=O)c1 [compound 83]
104

GET Emax where system = human mGlu2 receptor (Homo sapiens) and item = Cc1cc(-c2cnn3c2C(=O)N(c2ccc(C)c(F)c2)C[C@@H]3C)ccn1 [compound 76]
100

GET Emax where system = human mGlu2 receptor (Homo sapiens) and item = C[C@H]1CN(c2ccc(Cl)c(Cl)c2)C(=O)c2c(-c3ccnc(N4CCC4)c3)cnn21 [compound 97]
104

GET Emax where system = human mGlu2 receptor (Homo sapiens) and item = Cc1cc(-c2cnn3c2C(=O)N(c2ccc(Cl)c(C(F)(F)F)c2)C[C@@H]3C)cc(C)n1 [compound 54]
105

GET Emax where system = human mGlu2 receptor (Homo sapiens) and item = COCc1cc(-c2cnn3c2C(=O)N(c2ccc(C(F)(F)F)cc2)C[C@@H]3C)ccn1 [compound 22]
104

GET Emax where system = human mGlu2 receptor (Homo sapiens) and item = CC[C@H]1CN(c2ccc(C(F)(F)F)cc2)C(=O)c2c(-c3ccnc(C)c3)cnn21 [compound 130]
102

GET Emax where system = human mGlu2 receptor (Homo sapiens) and item = C[C@H]1CN(c2ccc(C(F)(F)F)cc2)C(=O)c2c(-c3ccnc(N4CCNCC4)c3)cnn21.Cl [compound 175, hydrochloride salt]
102

GET Emax where system = human mGlu2 receptor (Homo sapiens) and item = COc1c(C)cc(N2C[C@H](C)n3ncc(-c4ccnc(C)c4)c3C2=O)cc1C [compound 34]
100

GET Emax where system = human mGlu2 receptor (Homo sapiens) and item = C[C@H]1CN(c2ccc(C(F)(F)F)cc2)C(=O)c2c(-c3ccnc(N4CC(O)C4)c3)cnn21 [compound 101]
109
